assay: self-splicing fitness, log relative to wild type (ln ratio); higher = more splicing; Tetrahymena group I intron in knt gene, E. coli kanamycin selection, DiMSum; sequences stand for … in CUCUCU…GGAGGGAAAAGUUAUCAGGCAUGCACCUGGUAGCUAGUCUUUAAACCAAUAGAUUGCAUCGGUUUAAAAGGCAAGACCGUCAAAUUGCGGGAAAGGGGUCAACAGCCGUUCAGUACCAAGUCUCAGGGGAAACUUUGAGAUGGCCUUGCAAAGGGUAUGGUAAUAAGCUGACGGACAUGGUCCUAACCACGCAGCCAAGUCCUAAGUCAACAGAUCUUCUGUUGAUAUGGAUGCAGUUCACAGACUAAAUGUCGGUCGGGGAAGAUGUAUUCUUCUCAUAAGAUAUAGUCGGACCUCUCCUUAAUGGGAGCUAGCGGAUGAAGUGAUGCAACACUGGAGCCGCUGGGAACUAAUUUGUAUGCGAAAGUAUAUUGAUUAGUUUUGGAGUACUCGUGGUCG; conditions: 30 °C;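 further: selection with 25 µg/mL kanamycin versus none on LB agar overnight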
# key: entry, value: self-splicing fitness (ln)

ordered_residues: AGACAGCAAUAUUACGGCUA
self-splicing fitness (ln): -0.252
//
ordered_residues: AAUAAGCAAUAUUACGGACA
self-splicing fitness (ln): -0.911
//
ordered_residues: UUGCAGCAAUAUUACGCCUA
self-splicing fitness (ln): -0.384
//
ordered_residues: GUUUAGCAAUAUUACGUGAU
self-splicing fitness (ln): -0.892
//
ordered_residues: GGGCAGCAAUAUUACGGAGA
self-splicing fitness (ln): -4.44
//
ordered_residues: AUCAAGCAAUAUUACGCCUA
self-splicing fitness (ln): -0.765
//
ordered_residues: CCCUAGCAAUAUUACGAGAA
self-splicing fitness (ln): -2.85
//
ordered_residues: CGACAGCAAUAUUACGUCUA
self-splicing fitness (ln): -0.367
//
ordered_residues: UAUUAGCAAUAUUACGUAGC
self-splicing fitness (ln): -2.37
//
ordered_residues: AUCAAGCAAUAUUACGAUGC
self-splicing fitness (ln): -2.01
//
ordered_residues: UCCCAGCAAUAUUACGCCUG
self-splicing fitness (ln): -3.13
//
ordered_residues: UCGUAGCAAUAUUACGGACA
self-splicing fitness (ln): -0.671
//
ordered_residues: CGAGAGCAAUAUUACGUCAA
self-splicing fitness (ln): -3.22
//
ordered_residues: UCGGAGCAAUAUUACGCGGA
self-splicing fitness (ln): -2.32
//
ordered_residues: ACAAAGCAAUAUUACGAAAU
self-splicing fitness (ln): -3.02
//
ordered_residues: UAGUAGCAAUAUUACGACUG
self-splicing fitness (ln): 0.526

---

test: self-splicing fitness, log relative to wild type (ln ratio); higher = more splicing; Tetrahymena group I intron in knt gene, E. coli kanamycin selection, DiMSum; sequences stand for … in CUCUCU…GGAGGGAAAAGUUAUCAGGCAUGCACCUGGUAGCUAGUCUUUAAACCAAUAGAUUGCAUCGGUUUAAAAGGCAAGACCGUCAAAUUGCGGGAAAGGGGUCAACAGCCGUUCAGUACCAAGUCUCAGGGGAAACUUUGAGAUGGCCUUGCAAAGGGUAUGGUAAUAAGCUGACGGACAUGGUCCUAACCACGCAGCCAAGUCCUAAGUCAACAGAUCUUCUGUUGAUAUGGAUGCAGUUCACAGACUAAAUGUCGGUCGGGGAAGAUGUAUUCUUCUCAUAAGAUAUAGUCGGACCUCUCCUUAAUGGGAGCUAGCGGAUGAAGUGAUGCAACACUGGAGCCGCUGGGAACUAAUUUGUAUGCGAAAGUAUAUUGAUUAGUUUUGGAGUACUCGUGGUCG; settings: 37 °C
Use condition met when the recorded self-splicing fitness (ln) is no lower than -1; use condition not met when it is lower.

ordered_residues: CCGCAGCAAUAUUACGUACU
qualitative_label: condition not met
--
ordered_residues: CCGAAGCAAUAUUACGGCCU
qualitative_label: condition not met
--
ordered_residues: UGUGAGCAAUAUUACGUAGA
qualitative_label: condition met
--
ordered_residues: GAACAGCAAUAUUACGAACG
qualitative_label: condition met
--
ordered_residues: GCCGAGCAAUAUUACGUCGU
qualitative_label: condition met
--
ordered_residues: GGCCAGCAAUAUUACGGCAU
qualitative_label: condition met
--
ordered_residues: AAGUAGCAAUAUUACGUACG
qualitative_label: condition met
--
ordered_residues: UGCAAGCAAUAUUACGGUAU
qualitative_label: condition not met
--
ordered_residues: ACGAAGCAAUAUUACGGCGC
qualitative_label: condition met
--
ordered_residues: GACCAGCAAUAUUACGUGGC
qualitative_label: condition not met
--
ordered_residues: CUCAAGCAAUAUUACGGUGC
qualitative_label: condition not met
--
ordered_residues: CUCCAGCAAUAUUACGGUAC
qualitative_label: condition not met
--
ordered_residues: AUAUAGCAAUAUUACGAUUC
qualitative_label: condition met
--
ordered_residues: GAAGAGCAAUAUUACGAACU
qualitative_label: condition met
--
ordered_residues: GCCCAGCAAUAUUACGGGCU
qualitative_label: condition not met
--
ordered_residues: UCGCAGCAAUAUUACGAAAU
qualitative_label: condition not met
--
ordered_residues: UAUCAGCAAUAUUACGUUGU
qualitative_label: condition not met
--
ordered_residues: UCCAAGCAAUAUUACGCGAU
qualitative_label: condition not met
--
ordered_residues: AACAAGCAAUAUUACGGACA
qualitative_label: condition met
--
ordered_residues: ACGGAGCAAUAUUACGGUAG
qualitative_label: condition not met
--
ordered_residues: CAUAAGCAAUAUUACGUGAA
qualitative_label: condition not met
--
ordered_residues: CGUAAGCAAUAUUACGUGCC
qualitative_label: condition not met
--
ordered_residues: ACCGAGCAAUAUUACGUCAC
qualitative_label: condition not met
--
ordered_residues: UACAAGCAAUAUUACGCUGA
qualitative_label: condition not met
--
ordered_residues: AAGCAGCAAUAUUACGGGCU
qualitative_label: condition not met
--
ordered_residues: GGAAAGCAAUAUUACGGAAA
qualitative_label: condition not met
--
ordered_residues: UACUAGCAAUAUUACGUAUC
qualitative_label: condition not met
--
ordered_residues: CUUAAGCAAUAUUACGAAAU
qualitative_label: condition not met
--
ordered_residues: AAGGAGCAAUAUUACGGUCC
qualitative_label: condition not met
--
ordered_residues: ACCUAGCAAUAUUACGCCGU
qualitative_label: condition met
--
ordered_residues: ACGCAGCAAUAUUACGAUGG
qualitative_label: condition not met
--
ordered_residues: UAACAGCAAUAUUACGGAAA
qualitative_label: condition not met
--
ordered_residues: GGCCAGCAAUAUUACGUAAC
qualitative_label: condition not met
